- Tested on: NCI-H460
- METHOD: NCI tumour cell line growth inhibition, 48 h
The source made the active and inactive calls. Rule as the data show it: active = GI50 up to about 1.1 µM and inactive = higher.
Give GI50 for every item shown.

Problem: Indicate its recorded GI50; the compound in question is CC(C)CNC(=O)Cn1c2c(c3ccccc31)CCCC2
Result: 64.1 µM (inactive)

Problem: Return reported GI50. Input compound: Cn1c(=O)c2c(ncn2CCSS(=O)(=O)O)n(C)c1=O
Result: 66.4 µM (inactive)

Problem: Identify GI50 associated with the compound Clc1ccc(-c2nn3c(-c4ccncc4)nnc3s2)cc1
Result: > 100 µM (inactive)

Problem: Please look at this compound and report its GI50: CC1CC(c2ccc([N+](=O)[O-])cc2)=Nc2ccccc2S1 (stereo unspecified)
Result: 27.1 µM (inactive)

Problem: Return GI50 (reported value) for this compound: CCCCCCCCCCCC(=O)OCC1OC(n2cc(F)c(=O)[nH]c2=O)C(N)C(O)C1O (stereo unspecified)
Result: 78.9 µM (inactive)

Problem: Dear colleague, please send me the reported GI50 for CCOC1=NC(C(F)(F)F)(C(F)(F)F)N=C(N2CCOCC2)O1 when you can.
Result: > 100 µM (inactive)

Problem: Hello, please tell me recorded GI50 for this one: Cc1cc(S(=O)(=O)NC2=Nc3ccc(Cl)cc3C(c3ccccc3)N2)c(S)cc1Cl (stereo unspecified)
Result: 8.79 µM (inactive)

Problem: Name the recorded GI50 of the item O=[N+]([O-])c1ccc(/C(=C\c2ccccc2)Cn2ccnc2)cc1 in your answer.
Result: 32 µM (inactive)

Problem: Give the reported value of GI50 for this record: COP(=O)(O)C(N)Cc1c[nH]c2ccccc12 (stereo unspecified)
Result: > 100 µM (inactive)

Problem: Give the reported GI50 for this compound. Cc1cn(CCC(N)C(=O)O)c(=O)[nH]c1=O (stereo unspecified)
Result: > 100 µM (inactive)

Problem: Supply reported GI50 belonging to this compound: O=c1c2cc(Br)ccc2nc(CNc2ccccc2)n1-c1ccccc1
Result: 17.4 µM (inactive)

---

- Test system: A549
- METHOD: NCI tumour cell line growth inhibition, 48 h
Calls of active or inactive are those of the source. No stated cut-off is given here; in the data, active = GI50 up to about 1.1 µM and inactive = higher.
For each entry below, report its GI50 value.

Problem: Report GI50, nothing else, for this molecule: CN(NC1OC(CO)C(O)C(O)C1O)c1ccccc1 (stereo not drawn)
Result: > 100 µM (inactive)

Problem: Fill in reported GI50 for this entry: Cc1ccc(/N=N/c2c(O)ccc3cc(S(=O)(=O)O)ccc23)cc1
Result: > 100 µM (inactive)

Problem: Quote GI50 reported for N#CCCN(CCNc1ccccc1)C(=O)Nc1ccc(NC(=O)N(CCC#N)CCNc2ccccc2)cc1 please.
Result: > 100 µM (inactive)

Problem: Give the reported value of GI50 for this record: N#Cc1c(N)nc(Sc2ccccc2N)c(C#N)c1-c1ccccc1
Result: 19.4 µM (inactive)

Problem: Identify measured GI50 associated with Cc1cc(Cc2c(C)c(C)c(Cc3cc(C)cc(C(C)(C)C)c3O)c(C)c2C)c(O)c(C(C)(C)C)c1
Result: > 100 µM (inactive)

Problem: Consider the molecule O=C(/C=C/c1ccccc1O)c1cccs1 . State its measured GI50.
Result: > 100 µM (inactive)

Problem: State, in one line, measured GI50 of O=c1c(/C=C/c2c(O)ccc3ccccc23)nnc2sc(-c3cccc(Br)c3)nn12
Result: 32.1 µM (inactive)

Problem: Kindly indicate its recorded GI50. Item: C[n+]1c(/C=C/c2ccc(O)c3ncccc23)[se]c2ccccc21
Result: 7.06 µM (inactive)

Problem: Supply reported GI50 belonging to this molecule: [N-]=[N+]=NC(c1cn(C2CC(O)C(CO)O2)c(=O)[nH]c1=O)C(Br)I (stereo not drawn)
Result: > 100 µM (inactive)

Problem: // Input: CC(C)CNC(=O)Cn1c2c(c3ccccc31)CCCC2 . Output its GI50 only.
Result: 49.7 µM (inactive)

Problem: For the molecule CCOC(=O)CSc1cc[nH]c(=O)n1 , give its measured GI50 value.
Result: > 100 µM (inactive)

Problem: Supply measured GI50 of CC(C)(C)C1CCC2(CC1)c1[nH]c3ccccc3c1C1(CCC(C(C)(C)C)CC1)c1[nH]c3ccccc3c12 (stereo not drawn) in your reply.
Result: > 100 µM (inactive)

Problem: Report GI50 for CCCCCCCC/C=C\CCCCCCCC(=O)O
Result: 109 µM (inactive)

Problem: Read the entry CCOC(=O)c1cc(NC(=O)c2ccccc2)c(=O)n2c(cc3c(Cl)cccc32)c1O and write its reported GI50.
Result: > 100 µM (inactive)

Problem: Indicate its recorded GI50; the molecule in question is NCCN1C(=O)c2ccccc2C1c1ccc(Cl)cc1 (stereo not drawn)
Result: > 100 µM (inactive)

Problem: Supply measured GI50 of BrC1=CCC23CC=C(Br)[C@H]4CC2(COC3)C[C@@H]1O4 (stereo partly drawn) in your reply.
Result: > 100 µM (inactive)

Problem: Give the reported GI50 for this molecule. O=C1Oc2ccccc2C(=O)/C1=C1/C=C(c2ccccc2)SS1
Result: > 100 µM (inactive)

Problem: State its GI50: O=C1c2cc3c(cc2[C@@H]2C(O)[C@H]4O[C@H]4C4CCN1C42)OCO3 (stereo partly drawn)
Result: > 37.5 µM (inactive)

---

- System: DLD-1
- METHOD: NCI tumour cell line growth inhibition, 48 h
The source made the active and inactive calls. No stated cut-off is given here; in the data, active = GI50 up to about 1.1 µM and inactive = higher. Square brackets hold non-standard residues; d marks the D form. Peptide text beside a SMILES is read from it. * marks the point of attachment. ξ: configuration not given here. NMeN = CN[C@@H](CC(N)=O)C(=O)O; NMeV = CN[C@H](C(=O)O)C(C)C; ξNMeV = CNC(C(=O)O)C(C)C; Boc = CC(C)(C)OC(=O)*; ξNMeA = CNC(C)C(=O)O
Assignment: determine reported GI50 for the given compounds.

Problem: Return reported GI50 for target or system DLD-1, item CCOc1ccc(NC(=O)/C(=C\c2ccc(C)cc2)C(C)=O)cc1 .
Result: > 100 µM (inactive)

Problem: For DLD-1, give the measured GI50 of the entry CCCCCCCCCCCC(=O)OCC1OC(n2cc(F)c(=O)[nH]c2=O)C(N)C(O)C1O (centres undefined)
Result: 71.8 µM (inactive)

Problem: For DLD-1, give the measured GI50 of the entry COC(=O)C(C)N(C)C(=O)[C@H](CC(N)=O)N(C)C(=O)[C@@H]1CCCN1C(=O)[C@H](C(C)C)N(C)C(=O)C(C(C)C)N(C)C(=O)[C@@H](NC(=O)OC(C)(C)C)C(C)C (some centres undefined) (Boc-V[ξNMeV][NMeV]P[NMeN][ξNMeA]-OMe)
Result: 37 µM (inactive)

Problem: Quote GI50 with test system DLD-1 for COC(OC)c1cccc2c1C(=O)CCC1(O)c3ccccc3C1C2 (centres undefined)
Result: > 100 µM (inactive)

---

- Test system: HCC 2998
- METHOD: NCI tumour cell line growth inhibition, 48 h
Active and inactive are the calls of the source. Rule as the data show it: active = GI50 up to about 1.1 µM and inactive = higher. Bridge positions count the residues as written; N and C are the ends. Square brackets hold non-standard residues; d marks the D form. Peptide text beside a SMILES is read from it. * marks the point of attachment. Cbz = O=C(OCc1ccccc1)*; Dab = NCC[CH](N)C(=O)O; Bn = c1ccc(C*)cc1
MEASUREMENT LABEL: GI50

Problem: Read the entry C=C(CCCCCCCCC)CC(=O)SCCNC(=O)CCNC(=O)C(O)C(C)(C)COP(=O)(O)OP(=O)(O)OCC1OC(n2cnc3c(N)ncnc32)C(O)C1OP(=O)(O)O (stereo not drawn) and write its reported GI50.
Result: 52.8 µM (inactive)

Problem: Provide only the value of recorded GI50 for O=C1c2ccccc2-c2nc(-c3ccccc3)cc3c2c1nc1ccccc13
Result: 13.8 µM (inactive)

Problem: State its GI50 for this compound: CN(C)C(=O)/C=C/c1c[nH]c(=O)[nH]c1=O
Result: > 500 µM (inactive)

Problem: # return recorded GI50 for entry CC(=O)NNc1nc(C)c(C(=O)NNC(=O)C(=O)Nc2ccc(Cl)cc2)s1
Result: > 100 µM (inactive)

Problem: Indicate the recorded GI50 value for this compound: Cc1occc1/C(S)=N\c1ccc(Cl)c(COC(C)(C)C)c1
Result: 18.2 µM (inactive)

Problem: # return recorded GI50 for input CC(C)CC1NC(=O)C(Cc2ccccc2)NC(=O)C(Cc2ccccc2)NC(=O)C(NC(=O)C(Cc2ccc(OCc3ccccc3)cc2)NC(=O)OCc2ccccc2)CCNC1=O (stereo not drawn) (Cbz-Y(Bn)[Dab]FFL; lactam 2-C; configuration not given here)
Result: > 100 µM (inactive)

Problem: Read off the recorded GI50 for Nc1nc(-c2ccccc2)cc(-c2ccc(F)cc2)c1-c1ccc(Cl)cc1
Result: > 100 µM (inactive)

Problem: Recall and state the measured GI50 for OCCCN(CCc1ccc(Cl)c(Cl)c1)CCN1CCCC1 .
Result: 18 µM (inactive)

Origin of measurements: ChEMBL document CHEMBL1201862
